Protein target, amino acids: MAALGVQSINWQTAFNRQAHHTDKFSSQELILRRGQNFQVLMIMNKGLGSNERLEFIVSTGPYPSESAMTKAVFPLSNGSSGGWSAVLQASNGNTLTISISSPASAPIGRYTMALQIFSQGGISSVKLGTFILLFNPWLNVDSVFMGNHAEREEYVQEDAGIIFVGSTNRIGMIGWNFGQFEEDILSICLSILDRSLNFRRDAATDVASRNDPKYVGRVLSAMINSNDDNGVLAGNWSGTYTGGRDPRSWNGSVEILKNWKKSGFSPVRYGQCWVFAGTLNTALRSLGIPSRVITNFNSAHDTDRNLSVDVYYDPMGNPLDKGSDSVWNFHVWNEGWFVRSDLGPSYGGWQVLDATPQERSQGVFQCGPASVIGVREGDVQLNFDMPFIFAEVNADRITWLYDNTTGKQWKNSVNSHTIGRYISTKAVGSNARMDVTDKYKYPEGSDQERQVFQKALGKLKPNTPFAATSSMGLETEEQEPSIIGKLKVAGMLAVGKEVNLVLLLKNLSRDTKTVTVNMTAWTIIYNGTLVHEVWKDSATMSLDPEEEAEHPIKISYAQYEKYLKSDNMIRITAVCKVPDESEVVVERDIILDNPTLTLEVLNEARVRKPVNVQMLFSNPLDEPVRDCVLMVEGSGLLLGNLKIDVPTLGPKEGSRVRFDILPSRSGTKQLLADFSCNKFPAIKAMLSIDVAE
readout type: pIC50
The scale used: pIC50 is minus the common logarithm of the concentration in molar units.

Q) Form field: reported pIC50 of O=C(CBr)NCC(=O)N1CCN(C(=O)OCC23CC4CC(CC(C4)C2)C3)CC1
A) 4.60

----------
Property: melting point; scope: individual compounds

Would you please look over these solved cases?
compound	readout type	endpoint value
COC(=O)c1ccc2cc(COC(=O)N3CCN(C(=O)CNC(=O)C[S+](C)C)CC3)ccc2c1.[Br-]	melting point	125 to 126 °C
C=CS(=O)(=O)NCC(=O)N1CCN(C(=O)C23CC4CC(CC(C4)C2)C3)CC1 [Compound 8e]	melting point	159 to 160 °C
CN(C)c1cccc2c(S(=O)(=O)N3CCN(C(=O)CNC(=O)C[S+](C)C)CC3)cccc12.[Br-]	melting point	98 to 99 °C

Consider now this further compound.
Q) Form field: reported melting point of C=CS(=O)(=O)NCC(=O)N1CCN(C(=O)OCc2ccccc2)CC1 [Compound 8a]
A) 66 to 67 °C

----------
Property: IC50; scope: individual compounds
Target: purified recombinant human TG2 (Homo sapiens)
Sequence (P21980 whole entry): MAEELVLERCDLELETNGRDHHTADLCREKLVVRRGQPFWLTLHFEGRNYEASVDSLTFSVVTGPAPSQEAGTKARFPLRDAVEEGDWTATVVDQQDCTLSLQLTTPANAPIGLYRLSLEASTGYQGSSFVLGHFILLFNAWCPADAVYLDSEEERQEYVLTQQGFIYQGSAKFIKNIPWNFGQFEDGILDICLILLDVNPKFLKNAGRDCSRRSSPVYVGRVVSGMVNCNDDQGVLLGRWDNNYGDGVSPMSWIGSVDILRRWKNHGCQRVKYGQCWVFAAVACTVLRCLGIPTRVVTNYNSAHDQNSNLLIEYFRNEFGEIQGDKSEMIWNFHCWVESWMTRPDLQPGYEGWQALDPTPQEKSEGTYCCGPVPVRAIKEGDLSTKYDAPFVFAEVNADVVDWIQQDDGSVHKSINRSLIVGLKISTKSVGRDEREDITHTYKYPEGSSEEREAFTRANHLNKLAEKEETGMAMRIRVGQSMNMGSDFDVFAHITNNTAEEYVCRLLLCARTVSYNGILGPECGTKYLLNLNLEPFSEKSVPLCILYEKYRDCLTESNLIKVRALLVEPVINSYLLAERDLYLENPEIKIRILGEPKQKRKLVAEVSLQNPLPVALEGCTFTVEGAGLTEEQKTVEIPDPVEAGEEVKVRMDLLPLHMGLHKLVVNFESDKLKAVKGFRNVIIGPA
Assay: Selectivity assay, TG2, biotin X-cadaverine incorporation into N,N′-dimethylcasein (Example 4)
Conditions: recombinant human TG2 2 μg/ml, 1 h at 37° C.; errors are SD
Description: TG transamidation activity and the effect of inhibitors on activity was measured by biotin X-cadaverine incorporation into N,N′-dimethylcasein. […] After another set of washes, TG2 activity was measured using Sigma Fast OPD, tablets dissolved in 20 ml of distilled H2O. The colour was developed by adding 2.5M H2SO4 and the absorbance at 490 nm measured using a microplate reader ELx808™. […]

Would you please look over these solved cases?
compound	endpoint value
C[S+](C)CC(=O)N[C@H](Cc1ccccc1)C(=O)N1CCN(C(=O)OCc2ccccc2)CC1 [EB 1-127]	> 500 µM
C[S+](C)CC(=O)N[C@@H](Cc1ccccc1)C(=O)N1CCN(C(=O)OCc2ccccc2)CC1 [EB 1-126]	> 500 µM

Consider now this further compound.
Q) Form field: reported IC50 of C=CC(=O)N[C@H](Cc1ccccc1)C(=O)N1CCN(C(=O)OCc2ccccc2)CC1 [EB 1-131]
A) > 500 µM
